Reference for the values: patent US20240309103A1

Biological target: T1, hNPR1-mFc:hANP or hNPR1-hFc:hANP complex (human, UniProt P01160 124-151)
T1 construct: also called human NPR1 complexed to ANP
Experiment: SPR, mAb captured, 25C
Rule: kon of 60000 M⁻¹ s⁻¹ or more gives Satisfied; anything lower gives Not satisfied.

binder	answer.label
mAb25491 (antibody, human IgG4, V domains shown) VH: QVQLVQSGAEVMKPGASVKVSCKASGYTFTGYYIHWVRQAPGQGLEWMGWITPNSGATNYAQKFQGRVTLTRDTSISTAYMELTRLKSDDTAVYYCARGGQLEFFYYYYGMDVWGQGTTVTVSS VL: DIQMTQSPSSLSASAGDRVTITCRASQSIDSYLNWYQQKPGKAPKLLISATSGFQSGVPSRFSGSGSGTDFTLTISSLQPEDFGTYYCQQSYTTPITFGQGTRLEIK	Not satisfied
mAb25508 (antibody, human IgG4, V domains shown) VH: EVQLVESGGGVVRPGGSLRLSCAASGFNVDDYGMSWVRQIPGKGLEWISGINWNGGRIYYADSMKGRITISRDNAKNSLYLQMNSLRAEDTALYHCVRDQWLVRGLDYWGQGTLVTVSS VL: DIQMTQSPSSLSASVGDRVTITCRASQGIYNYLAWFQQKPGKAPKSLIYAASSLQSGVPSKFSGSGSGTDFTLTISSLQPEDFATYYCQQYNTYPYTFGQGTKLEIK	Satisfied
mAb22809 (antibody, human IgG4, V domains shown) VH: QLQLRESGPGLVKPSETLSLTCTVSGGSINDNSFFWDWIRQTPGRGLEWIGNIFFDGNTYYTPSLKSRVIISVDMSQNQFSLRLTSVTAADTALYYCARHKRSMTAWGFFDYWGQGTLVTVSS VL: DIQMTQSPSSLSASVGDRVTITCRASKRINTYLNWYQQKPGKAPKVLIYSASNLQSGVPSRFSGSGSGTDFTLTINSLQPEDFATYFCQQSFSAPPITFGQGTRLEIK	Not satisfied
